Values from the supplement of paper PMC10567573

B1: FAM189A2 (parent)
chain: NLAGFILGCQGAQFVSSVPRCDLV

variants of: B1; assay: protein stability index of a GFP-peptide fusion (GPS, HEK-293T) (PSI 1-6); higher = more stable; conditions: c terminus: a fixed tail appended;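 note: lentivirally expressed fusions sorted by FACS into six bins by GFP to DsRed ratio, PSI derived from sequencing read proportions per bin multiplied by bin number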
Please note: T applies when protein stability index is 3 or greater, and F applies otherwise.

In plain terms: is recorded protein stability index at least 3 for `A3N` ? T

In plain terms: is recorded protein stability index at least 3 for `F5G` ? F

In plain terms: is recorded protein stability index at least 3 for `G8L` ? F

In plain terms: is recorded protein stability index at least 3 for `S17Y` ? T

In plain terms: is recorded protein stability index at least 3 for `S17K` ? F

In plain terms: is recorded protein stability index at least 3 for `I6R` ? F

In plain terms: is recorded protein stability index at least 3 for `I6V` ? F

In plain terms: is recorded protein stability index at least 3 for `S17I` ? F

In plain terms: is recorded protein stability index at least 3 for `R20L` ? F

In plain terms: is recorded protein stability index at least 3 for `C21K` ? T

In plain terms: is recorded protein stability index at least 3 for `Q13T` ? T

In plain terms: is recorded protein stability index at least 3 for `L7G` ? F

In plain terms: is recorded protein stability index at least 3 for `V24E` ? F

In plain terms: is recorded protein stability index at least 3 for `A3D` ? F

In plain terms: is recorded protein stability index at least 3 for `F14E` ? F

In plain terms: is recorded protein stability index at least 3 for `S16T` ? F

In plain terms: is recorded protein stability index at least 3 for `Q10R` ? F

In plain terms: is recorded protein stability index at least 3 for `S16N` ? F

In plain terms: is recorded protein stability index at least 3 for `F14N` ? F

In plain terms: is recorded protein stability index at least 3 for `R20P` ? F

In plain terms: is recorded protein stability index at least 3 for `R20Y` ? F

In plain terms: is recorded protein stability index at least 3 for `V18N` ? F

In plain terms: is recorded protein stability index at least 3 for `I6K` ? F

In plain terms: is recorded protein stability index at least 3 for `L2G` ? F

In plain terms: is recorded protein stability index at least 3 for `L23C` ? T

In plain terms: is recorded protein stability index at least 3 for `S17E` ? F

In plain terms: is recorded protein stability index at least 3 for `F14V` ? F

In plain terms: is recorded protein stability index at least 3 for `V15Q` ? T

In plain terms: is recorded protein stability index at least 3 for `C9E` ? F

In plain terms: is recorded protein stability index at least 3 for `G11Y` ? T

In plain terms: is recorded protein stability index at least 3 for `G11I` ? T

In plain terms: is recorded protein stability index at least 3 for `A3Y` ? T

In plain terms: is recorded protein stability index at least 3 for `P19M` ? F

In plain terms: is recorded protein stability index at least 3 for `D22M` ? F

In plain terms: is recorded protein stability index at least 3 for `G4N` ? T

In plain terms: is recorded protein stability index at least 3 for `S16Y` ? T

In plain terms: is recorded protein stability index at least 3 for `S16R` ? F

In plain terms: is recorded protein stability index at least 3 for `Q13Y` ? T

In plain terms: is recorded protein stability index at least 3 for `V24K` ? F

In plain terms: is recorded protein stability index at least 3 for `L2S` ? F

In plain terms: is recorded protein stability index at least 3 for `V24S` ? F

In plain terms: is recorded protein stability index at least 3 for `F14Q` ? F

In plain terms: is recorded protein stability index at least 3 for `D22K` ? F

In plain terms: is recorded protein stability index at least 3 for `V18P` ? F

In plain terms: is recorded protein stability index at least 3 for `L7S` ? F

In plain terms: is recorded protein stability index at least 3 for `L7D` ? F

In plain terms: is recorded protein stability index at least 3 for `F14T` ? F

In plain terms: is recorded protein stability index at least 3 for `A3W` ? T

In plain terms: is recorded protein stability index at least 3 for `C9F` ? F

In plain terms: is recorded protein stability index at least 3 for `N1R` ? F

In plain terms: is recorded protein stability index at least 3 for `N1L` ? F

In plain terms: is recorded protein stability index at least 3 for `I6Q` ? F

In plain terms: is recorded protein stability index at least 3 for `L7T` ? F

In plain terms: is recorded protein stability index at least 3 for `P19R` ? F

In plain terms: is recorded protein stability index at least 3 for `P19T` ? T

In plain terms: is recorded protein stability index at least 3 for `S16H` ? F

In plain terms: is recorded protein stability index at least 3 for `G8R` ? F

In plain terms: is recorded protein stability index at least 3 for `V18I` ? T

In plain terms: is recorded protein stability index at least 3 for `F5N` ? F

In plain terms: is recorded protein stability index at least 3 for `V15L` ? T

In plain terms: is recorded protein stability index at least 3 for `V18L` ? F

In plain terms: is recorded protein stability index at least 3 for `I6Y` ? F

In plain terms: is recorded protein stability index at least 3 for `V18T` ? F

In plain terms: is recorded protein stability index at least 3 for `A3H` ? F
